Test: chemical genetic growth profiling, strain panel (AID 1159580);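 also: tested at 20 µM; growth read once vehicle control cultures reached saturation at 30 °C; 1 = growth at the plate median or of vehicle wells; lower values mean less growth of the strain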
Conditions: S. cerevisiae deletion strains, growth OD, locus YOR270C, strain vph1, active compounds read low
In all, about 5,500 compounds went through this assay and about 2,000 (36%) were called active. About 18% were inconclusive and are not listed. Some of the results follow.
test.readout: normalized growth
No unit in the answer, only the number.

The examples below pair each entry with its known result.
{"columns": ["molecule", "observed.measurement"],
 "data": [
  ["CC(CCC(=O)O)[C@H]1CCC2C3CC[C@@H]4C[C@H](O)CC[C@]4(C)C3CC[C@@]21C (stereo not given in full)", 0.807],
  ["CC(CCC(=O)O)[C@H]1CCC2C3C[C@H](O)[C@@H]4C[C@H](O)CC[C@]4(C)C3CC[C@@]21C (stereo not given in full)", 0.982]
]}

Consider the molecule shown here: `O=C(O)CCC(=O)Nc1ccc(S(=O)(=O)Nc2nccs2)cc1` What is its recorded normalized growth?
1.03

Consider the molecule shown here: C[C@@H]1CC2C3CCC4=CC(=O)C=C[C@]4(C)[C@@]3(F)[C@@H](O)C[C@]2(C)[C@H]1C(=O)CO (stereo not given in full) What is its recorded normalized growth?
1.01

Consider the molecule shown here: `COc1c2ccccc2nc2occc12` What is its recorded normalized growth?
0.73

---

Assay: chemical genetic growth profiling, strain panel (AID 1159580)
Details: S. cerevisiae deletion strains, growth OD, locus YGR078C, strain PAC10, active compounds read low
Among all 5,500 compounds or so, about 2,000 (36%) were called active. Inconclusive results (about 18%) are left out. The list shows a part of the results.
Label Criterion met when normalized growth is strictly below 1; at or above that, label Criterion not met.

Please check: normalized growth for `Cc1c(S(=O)(=O)c2ccc(Cl)cc2)csc1C(=O)Nc1ccc(N2CCOCC2)c(Cl)c1` , strictly under 1 or not?
Criterion not met

Please check: normalized growth for `N[C@H](Cc1ccccc1)C(=O)O` , strictly under 1 or not?
Criterion not met

Please check: normalized growth for `CSC(=NC(=O)c1c(Cl)cccc1Cl)SC` , strictly under 1 or not?
Criterion met

Please check: normalized growth for CC(CCC(=O)O)[C@H]1CCC2C3CC[C@@H]4C[C@H](O)CC[C@]4(C)C3C[C@H](O)[C@@]21C (some centres not stated) , strictly under 1 or not?
Criterion not met

Please check: normalized growth for `Cc1cscc1S(=O)(=O)c1ccc(Cl)cc1` , strictly under 1 or not?
Criterion met

Please check: normalized growth for `COc1ccc(CNc2ccccc2-c2nc3ccccc3[nH]2)cc1` , strictly under 1 or not?
Criterion met

Please check: normalized growth for `N[C@H](Cc1cc(I)c(Oc2ccc(O)c(I)c2)c(I)c1)C(=O)O` , strictly under 1 or not?
Criterion met

Please check: normalized growth for `Cc1cccc(Nc2ccncc2S(=O)(=O)NC(=O)NC(C)C)c1` , strictly under 1 or not?
Criterion not met

Please check: normalized growth for `COc1ccc(C(=O)CC(=O)c2ccc(C(C)(C)C)cc2)cc1` , strictly under 1 or not?
Criterion met

Please check: normalized growth for CC(CN(C)C)CN1c2ccccc2Sc2ccccc21 (configuration not stated) , strictly under 1 or not?
Criterion met

Please check: normalized growth for `O=c1cc(-c2ccccc2)oc2cc(O)cc(O)c12` , strictly under 1 or not?
Criterion met

Please check: normalized growth for `N[C@@H](Cc1cc(I)c(Oc2cc(I)c(O)c(I)c2)c(I)c1)C(=O)O` , strictly under 1 or not?
Criterion not met

---

Assay: chemical genetic growth profiling, strain panel (AID 1159580)
Details: S. cerevisiae deletion strains, growth OD, locus YPR106W, strain ISR1, active compounds read low
In all, about 5,500 compounds went through this assay and about 2,000 (36%) were called active. Not shown: some 18% with an inconclusive outcome. The list shows a part of the results.
normalized growth by entry:
No unit in the answer, only the number.

Consider the compound shown here: `O=S(=O)(Nc1ccc(Oc2ccc(OC(F)(F)F)cc2)cc1)c1cccc(Cl)c1` What is its recorded normalized growth?
0.988

Consider the compound shown here: `O=C(CCn1c(=O)oc2ccccc21)Sc1ccc(Cl)cc1Cl` What is its recorded normalized growth?
0.944

---

Experiment: chemical genetic growth profiling, strain panel (AID 1159580)
Settings: S. cerevisiae deletion strains, growth OD, locus YLR058C, strain SHM2, active compounds read low
The campaign covered roughly 5,500 compounds. About 2,000 (36%) were called active. Not shown: some 18% with an inconclusive outcome. This is one part of the list.
normalized growth by entry:
No unit in the answer, only the number.

The examples below pair each entry with its known result.
{"columns": ["molecule", "observed.measurement"],
 "data": [
  ["CC1(C)C(=O)C=C[C@@]2(C)C1CC(=O)[C@@]1(C)C3=CC(=O)O[C@@H](c4ccoc4)[C@]3(C)CCC12 (some centres undefined)", 1],
  ["C[C@@H](N)[C@@H](O)c1ccccc1", 0.978],
  ["O=C(O)c1ccccc1C(=O)Nc1ccc(S(=O)(=O)Nc2nccs2)cc1", 1.01],
  ["O=c1cc(-c2ccccc2)oc2c(O)c(O)ccc12", 0.938],
  ["CN(C)N=Nc1nc[nH]c1C(N)=O", 1.02],
  ["CN(C)C(=O)Nc1ccc(Cl)c(Cl)c1", 0.991],
  ["CCCCC[C@H](CC(=O)NO)C(=O)N[C@H](C(=O)N1CCC[C@H]1CO)C(C)C", 1.01],
  ["COC(=O)CCC(C)[C@H]1CCC2C3C(C[C@H](O)[C@@]21C)[C@@]1(C)CC[C@@H](O)C[C@H]1C[C@H]3O (some centres undefined)", 1.01]
]}

Consider the molecule shown here: NCC(CC(=O)O)c1ccc(Cl)cc1 (centres undefined) What is its recorded normalized growth?
1.02

Consider the molecule shown here: `O=c1[nH]cnc2[nH]ncc12` What is its recorded normalized growth?
1.01

Consider the molecule shown here: C=C1C2CC[C@@]3(C)[C@H](c4ccoc4)OC(=O)C[C@]13O[C@H]1CC(O)C(C)(C)C(CC(=O)OC)[C@@]21C (some centres undefined) What is its recorded normalized growth?
1

---

normalized growth by entry:
Experiment: chemical genetic growth profiling, strain panel (AID 1159580);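 also: tested at 20 µM; growth read once vehicle control cultures reached saturation at 30 °C; 1 = growth at the plate median or of vehicle wells; lower values mean less growth of the strain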
Conditions: S. cerevisiae deletion strains, growth OD, locus YLR418C, strain cdc73, active compounds read low
Among all 5,500 compounds or so, about 2,000 (36%) were called active. Not shown: some 18% with an inconclusive outcome. The list shows a part of the results.
No unit in the answer, only the number.

The examples below pair each entry with its known result.
{"columns": ["compound", "normalized growth"],
 "data": [
  ["COc1ccc(C(=O)CC(=O)c2ccc(C(C)(C)C)cc2)cc1", 0.952],
  ["COc1cc(C)c(C(=O)Oc2cc(C)c(C(=O)O)c(O)c2C)c(OC)c1C", 0.859],
  ["Clc1ccc2c(c1)C(N1CCNCC1)=Nc1ccccc1O2", 0.981]
]}

Alright, here's another compound for you.
Consider the compound shown here: `COC(=O)c1c(C)cc(OC(=O)c2c(C)cc(O)c(C=O)c2O)c(C)c1O` What is its recorded normalized growth?
0.924

---

Test: chemical genetic growth profiling, strain panel (AID 1159580);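 also: tested at 20 µM; growth read once vehicle control cultures reached saturation at 30 °C; 1 = growth at the plate median or of vehicle wells; lower values mean less growth of the strain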
Details: S. cerevisiae deletion strains, growth OD, locus YLR330W, strain CHS5, active compounds read low
In all, about 5,500 compounds went through this assay and about 2,000 (36%) were called active. Inconclusive results (about 18%) are left out. This is one part of the list.
test.readout: normalized growth
No unit in the answer, only the number.

{"columns": ["compound", "normalized growth"],
 "data": [
  ["CCN(CCCc1ccccc1)CCCc1ccccc1", 0.994],
  ["COc1cc2c(cc1-c1cc3cc4ccoc4cc3oc1=O)OCO2", 0.983],
  ["COc1cc(C)c(C(=O)Oc2cc(C)c(C(=O)O)c(O)c2C)c(OC)c1C", 1.01],
  ["COc1cc2c(cc1O)C(Cc1ccc(O)cc1)N(C)CC2 (configuration not stated)", 1.02],
  ["C[C@H](N)[C@H](O)c1cccc(O)c1", 0.985],
  ["C[C@@H](N)[C@@H](O)c1ccccc1", 0.997]
]}

Alright, here's another compound for you.
Consider the compound shown here: `O=c1cc(-c2cc(O)c(O)c(O)c2)oc2cc(O)cc(O)c12` What is its recorded normalized growth?
0.994

---

Assay: chemical genetic growth profiling, strain panel (AID 1159580);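 also: tested at 20 µM; growth read once vehicle control cultures reached saturation at 30 °C; 1 = growth at the plate median or of vehicle wells; lower values mean less growth of the strain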
Conditions: S. cerevisiae deletion strains, growth OD, locus YJL187C, strain SWE1 (second series), active compounds read low
In all, about 5,500 compounds went through this assay and about 2,000 (36%) were called active. About 18% were inconclusive and are not listed. This is one part of the list.
test.readout: normalized growth
No unit in the answer, only the number.

The examples below pair each entry with its known result.
{"columns": ["molecule", "normalized growth"],
 "data": [
  ["O=C(O)CCCOc1ccc(Cl)cc1Cl", 0.999],
  ["CN(C)CCOC(=O)C(c1ccccc1)C1(O)CCCC1 (stereo unspecified)", 1.02],
  ["COc1cc2c(cc1-c1cc3cc4ccoc4cc3oc1=O)OCO2", 0.98]
]}

Consider the molecule shown here: NCC(CC(=O)O)c1ccc(Cl)cc1 (stereo unspecified) What is its recorded normalized growth?
1.01

Consider the molecule shown here: COc1c2ccoc2nc2c(OC)c(OCC(O)C(C)(C)O)ccc12 (stereo unspecified) What is its recorded normalized growth?
1.01

Consider the molecule shown here: CC(CN1c2ccccc2Sc2cccnc21)N(C)C (stereo unspecified) What is its recorded normalized growth?
1.02
